Provenance of the data: PubChem BioAssay (NCI)

Tested on: SR leukemia
Test: NCI tumour cell line growth inhibition, 48 h
Below is a list of entries, each paired with its recorded TGI value.

Example entries and their recorded answers appear below.
CC(=O)C1Cn2c(=O)c3cc4ccccc4cc3c(=O)n2C=C1C (stereo not drawn) ... > 100 µM
COc1cc2c(cc1Cc1cccc(Cl)c1F)c(=O)c(C(=O)O)cn2[C@@H](CO)C(C)C ... 13.8 µM
COc1ccc2cc(C(=O)/C=C/c3ccc(N(C)C)cc3)ccc2c1 ... > 100 µM

Input: Any idea what TGI was measured for [N-]=[N+]=Nc1c(Cl)c(Cl)nc2ccccc12 ?
Output: > 100 µM

Input: Try this compound too: Cc1nn2c(nc1=O)sc1ccc3ccccc3c12
Output: > 100 µM

Input: Try this compound too: O=C(NC(=O)c1ccccc1[N+](=O)[O-])Nc1ccc(Oc2ncc(Cl)cn2)c([N+](=O)[O-])c1
Output: > 100 µM

Input: Try this compound too: O=C(OC1CCC2OOC1O2)c1ccc([N+](=O)[O-])cc1 (stereo not drawn)
Output: > 100 µM

Input: Try this compound too: Cc1cc(C)c(O)c(CN2CCN(C(C)C)CCN(C(C)C)CC2)c1
Output: 64 µM

Input: Try this compound too: Cc1nc(N2N=C(c3ccc(Cl)cc3)CCC2=O)sc1[N+](=O)[O-]
Output: > 100 µM

Input: Try this compound too: C/C(=N\NC(=S)NCCCCNC(=S)N/N=C(\C)c1ccccn1)c1ccccc1
Output: 2.17 µM

Input: Try this compound too: CN(C)CCCCC(C(=O)CBr)(c1ccccc1)c1ccccc1
Output: 7.02 µM

Input: Try this compound too: N#Cc1cc([N+](=O)[O-])ccc1NC(=O)/C(=N\NC(=O)c1ccncc1)C(c1cnc2ccc([N+](=O)[O-])cc2n1)[N+](=O)[O-] (stereo not drawn)
Output: 46.8 µM

Input: Try this compound too: COc1cc(C2c3cc4c(cc3[C@H](NS(C)(=O)=O)C3COC(=O)[C@H]23)OCO4)cc(OC)c1OC (stereo partly drawn)
Output: > 100 µM
